Biological target: glycosylated human PAI-1 (active form) (human, UniProt P05121 24-402, glycosylated)
Sequence (P05121 24-402 limits assumed): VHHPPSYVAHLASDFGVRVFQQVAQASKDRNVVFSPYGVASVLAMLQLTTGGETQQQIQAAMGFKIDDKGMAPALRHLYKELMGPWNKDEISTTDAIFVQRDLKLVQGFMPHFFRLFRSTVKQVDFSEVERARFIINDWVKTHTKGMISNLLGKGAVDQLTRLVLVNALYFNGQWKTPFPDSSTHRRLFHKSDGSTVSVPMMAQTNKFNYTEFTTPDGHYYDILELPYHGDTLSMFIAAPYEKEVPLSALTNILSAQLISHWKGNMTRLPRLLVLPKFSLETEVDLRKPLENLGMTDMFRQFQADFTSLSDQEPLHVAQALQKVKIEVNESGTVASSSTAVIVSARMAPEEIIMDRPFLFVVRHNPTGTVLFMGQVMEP
Assay: cell-based or functional assay
endpoint: Plasmin Generation (nM)

• E16 (antibody, mouse IgG1, V domains shown, mouse IgG1; also called mE16; E16 (IgG1)) VH: EVKLVESGGGLVKPGGSLKLSCAASGFTFSNYGMSWVRQTPEKGLGWVASLRTGGNTYYSDSVKGRFTISRDNDRNILYLQMSSLTSEDTAVYYCARGLRHWGYFDVWGAGTTVTVSS VL: DIVMTQSHKFMSTSVGDRVNITCKASQDVSTAVGWYQQEPGQSPKLLIYSASNRHTGVPDRFTGSGSGTDFTFTISSVQAEDLAVYYCQQHYSSPWTFGGGTKLEIK = 4.74
• C45 (antibody, mouse IgG2b, V domains shown, mouse IgG2b; also called mC45; C45 (IgG2b)) VH: QVQLQQSGVELVRPGTSVKVSCKASGYAFTNYLIEWIKQRPGQGLEWIGVIHPGSGVTNYNEKFKGKAILTADKSSSTAYMQLSSLTSDDSAVYFCARDYYGSSHGLMDYWGQGTSVTVSS VL: DIKMTQSPSSMYASLGERVTITCKASQDINSYLSWFQQKPGKSPKTLIYRANRLVDGVPSRFSGSGSGQDYSLTISSLEYEDMGIYYCLQYDEFPRTFGGGTKLEIK = 10.6
• B28 (antibody, mouse IgG2b, V domains shown, mouse IgG2b/kappa; also called mB28; B28 (IgG2b/k)) VH: QVQLQQSGAELMKPGASVKISCKATGYTFSISWIEWIKQRPGGLEWIGKILPGSGGANYNEKFKGKATVTADTSSNTVYMQLSSLTSEDSAVYYCARLSTGTRGAFDYWGQGTTLTVSS VL: DIQLTQSPASLSASVGATVTITCRASENVYSYLAWYQQKQGKSPQLLVYNAKTLAEGVPSRFSGSGSGTQFSLKINYLQPEDFGSYYCQHHYGTPPTFGGGTKVEIKR = 7.28
• A44 (antibody, mouse IgG1, V domains shown, mouse IgG1/kappa; also called mA44; A44 parental) VH: EMQLQESGPSLVKPSQTLSLTCSVTGDSMTNGYWNWIRKFPGNKLEYMGYITYSGSTYYNPSLKGRISITRNTSKNQYYLQLSSVTTEDTATYYCARWHYGSPYYFDYWGQGTTLTVSS VL: DIKMTQSPSSMYASLGERVTITCKASQDINSYLSWLQQKPGKSPKTLIYRANRSVDGVPSRFSGSGSGQDYSLTISSLEYEDMGIYYCLQYDEFPPTFGGGTKLEIKR = 3.32

Measured values drawn from patent US20160200831A1 for this set.
